Measurement record for Myeloid Cell Leukemia 1 (Mcl-1) (Homo sapiens, UniProt Q07820); quantity recorded: pKi.
Would you please state pKi, meaning minus log10 of the concentration in mol/L, as a bare number?

The observed pKi for Cc1nn2c(c1C)-c1c(Cl)ccc3c1c(C)c(C(=O)O)n3CCCOc1cc(cc3ccccc13)SCc1cc(nn1C)CCC2 (single isomer, unassigned) [Compound 3] when tested with Myeloid Cell Leukemia 1 (Mcl-1) (Homo sapiens, UniProt Q07820) stands at 10.00

The observed pKi for Cc1nn2c(c1C)-c1c(Cl)ccc3c1c(C)c(C(=O)O)n3CCCOc1cc(cc3ccccc13)SCc1cc(nn1C)CCC2 (single isomer, unassigned) [Compound 4] when tested with Myeloid Cell Leukemia 1 (Mcl-1) (Homo sapiens, UniProt Q07820) stands at 8.80

The observed pKi for Cc1nn2c(c1C)-c1c(Cl)ccc3c1c(C)c(C(=O)O)n3CCCOc1cc(cc3ccccc13)SCc1cn(nn1)CCC2 (single isomer, unassigned) [Compound 5] when tested with Myeloid Cell Leukemia 1 (Mcl-1) (Homo sapiens, UniProt Q07820) stands at 8.28

The observed pKi for Cc1nn2c(c1C)-c1c(Cl)ccc3c1c(C)c(C(=O)O)n3CCCOc1cc(cc3ccccc13)SCc1cnn(c1)CCC2 (single isomer, unassigned) [Compound 8] when tested with Myeloid Cell Leukemia 1 (Mcl-1) (Homo sapiens, UniProt Q07820) stands at 6.37

The observed pKi for Cc1nn2c(c1C)-c1c(Cl)ccc3c1c(C)c(C(=O)O)n3CCCOc1cc(cc3ccccc13)SCc1cn(nn1)CCC2 (single isomer, unassigned) [Compound 6] when tested with Myeloid Cell Leukemia 1 (Mcl-1) (Homo sapiens, UniProt Q07820) stands at 6.35

====

# target_system: Myeloid Cell Leukemia 1 (Mcl-1) (Homo sapiens, UniProt Q07820)
# Sequence (Q07820 whole entry): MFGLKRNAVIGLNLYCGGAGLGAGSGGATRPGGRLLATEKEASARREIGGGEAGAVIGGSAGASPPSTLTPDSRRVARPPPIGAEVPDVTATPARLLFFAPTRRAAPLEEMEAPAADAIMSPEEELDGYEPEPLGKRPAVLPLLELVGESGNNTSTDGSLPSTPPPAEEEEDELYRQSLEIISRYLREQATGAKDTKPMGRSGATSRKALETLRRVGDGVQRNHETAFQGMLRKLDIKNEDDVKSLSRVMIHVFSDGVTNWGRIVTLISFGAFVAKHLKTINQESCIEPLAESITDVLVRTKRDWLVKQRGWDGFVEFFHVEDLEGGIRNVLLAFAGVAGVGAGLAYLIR
recorded_endpoint: Ki
Field note: include the unit after the figure.

Consider the following illustrative entries.
[
  {
    "compound": "Cc1nn2c(c1C)-c1c(Cl)ccc3c1c(C)c(C(=O)O)n3CCCOc1cc(cc3cc(F)ccc13)CCc1cc(nn1C)CCC2 (single isomer, unassigned) [Compound 2]",
    "target_system": "Myeloid Cell Leukemia 1 (Mcl-1) (Homo sapiens, UniProt Q07820)",
    "recorded_endpoint": "Ki",
    "data_value": "3280 pM"
  },
  {
    "compound": "Cc1nn2c(c1C)-c1c(Cl)ccc3c1c(C)c(C(=O)O)n3CCCOc1cc(cc3cc(F)ccc13)CCc1cc(nn1C)CCC2 (single isomer, unassigned) [Compound 1]",
    "target_system": "Myeloid Cell Leukemia 1 (Mcl-1) (Homo sapiens, UniProt Q07820)",
    "recorded_endpoint": "Ki",
    "data_value": "40 pM"
  }
]

Shift focus to the following entry.
The observed Ki for Cc1nn2c(c1C)-c1c(Cl)ccc3c1c(C)c(C(=O)O)n3CCCOc1cc(cc3ccccc13)SCc1cnn(c1)CCC2 (single isomer, unassigned) [Compound 7] when tested with Myeloid Cell Leukemia 1 (Mcl-1) (Homo sapiens, UniProt Q07820) stands at 950 pM
